# system tested: UniProt:O15530
# assay summary: PDK1 kinase assay (coupled PDK1/AKT/FAM-crosstide assay, IMAP fluorescence polarization)
# Format: biochemical
# experimental parameters: inhibition of phospo-PDK1 in vitro
Where a name gives a salt, the structure may show the parent alone.

molecule | IC50
C=C1c2ccnc(NCc3ccc(-c4ccc5ncnc(N)c5c4)s3)c2C(=O)N1Cc1ccc(F)c(F)c1 [Ex. 7.20] | 100 to 1000 nM
CNc1cnc2ccc(-c3ccc(CNc4ncccc4C(=O)N[C@@H](C)c4ccc(F)c(F)c4)s3)cc2n1 [Example 4.28] | 100 to 1000 nM
C[C@H](NC(=O)c1nccnc1NCc1ccc(-c2ccc3ncnc(N)c3c2)s1)c1cccc(F)c1 [Example 3.69, (TFA salt)] | < 100 nM
CC(C)Oc1cc(CNc2ncccc2C(=O)Nc2ccc(C(F)(F)F)cc2)cc(-c2c[nH]c3ncc(C(=O)NC4CC4)cc23)c1 [Example 4.1.2] | > 5000 nM
CCOC(=O)c1cccnc1NCc1cc(OC(C)C)cc(-c2cn(S(=O)(=O)c3ccccc3)c3ncc(C(=O)NC4CC4)cc23)c1 [4.1.17] | > 5000 nM
Cn1cc(C(=O)NCc2ccc(F)c(F)c2)c(NCc2ccc(-c3ccc4ncnc(N)c4c3)s2)n1 [Ex. 11.1] | < 100 nM
Nc1ncnc2ccc(-c3ccc(CNc4nccc5c4C(=O)N(Cc4ccc(F)c(F)c4)C5)s3)cc12 [Ex. 7.19] | 100 to 1000 nM

* * *

# Test system: phospho-akt (Thr308) in PC-3 cells
# assay summary: Inhibition of phospho-akt (Thr308) in PC-3 cells, MSD phospho-akt 308 ELISA kit
# Format: cell-based
# experimental parameters: inhibition of P308 Akt in PC-3 cells using MSD, 2 hours, no serum; read-out: EC50
pEC50: −log10 of the molar value.
Entries and their pEC50 values follow.

compound | system tested | pEC50
CC(N)CCc1nc(-c2ccc(CNc3ncc(C(F)(F)F)cc3C(=O)Nc3ccc(F)cc3)cc2)cnc1N (stereo not drawn) | phospho-akt (Thr308) in PC-3 cells | > 6.00
C[C@H](NC(=O)c1cc(C#N)cnc1NCc1ccc(-c2c[nH]c3ncnc(N)c23)cc1F)c1ccc(F)cc1 | phospho-akt (Thr308) in PC-3 cells | > 6.00
C[C@H](NC(=O)c1nc(C#N)cnc1NCc1ccc(-c2cnc(N)c(CCC3CCNC3)n2)cc1)c1ccc(F)c(F)c1 (single isomer, unassigned) | phospho-akt (Thr308) in PC-3 cells | 5.00 to 6.00

* * *

# system tested: PDK1 (Homo sapiens (Human), UniProt O15530)
# Sequence (O15530 51-359): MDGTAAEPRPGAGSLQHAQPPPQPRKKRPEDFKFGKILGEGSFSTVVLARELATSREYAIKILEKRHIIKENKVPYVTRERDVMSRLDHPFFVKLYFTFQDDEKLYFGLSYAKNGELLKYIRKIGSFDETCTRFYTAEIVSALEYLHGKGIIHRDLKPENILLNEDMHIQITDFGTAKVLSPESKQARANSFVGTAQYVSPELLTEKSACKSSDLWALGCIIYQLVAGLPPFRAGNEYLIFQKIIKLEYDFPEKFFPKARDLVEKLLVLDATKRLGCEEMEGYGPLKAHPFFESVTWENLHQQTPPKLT
# assay summary: PDK1 kinase assay (coupled PDK1/AKT/FAM-crosstide assay, IMAP fluorescence polarization)
# Format: biochemical
# experimental parameters: inhibition of phospo-PDK1 in vitro
pIC50: −log10 of the molar value. Structures can show the parent of a compound that is named as a salt.

molecule | pIC50
Nc1ncnc2ccc(-c3ccc(CNc4nccnc4C(=O)NCc4cccc(F)c4F)s3)cc12 [Example 3.74, (TFA salt)] | 6.00 to 7.00
Cc1nc(C)c(/C=C2\C(=O)Nc3cc(/C=C/CNc4ncccc4C(=O)NCc4ccc(F)c(F)c4)ccc32)[nH]1 | > 7.00
CC(C)Oc1cc(CNc2ncccc2C(=O)NC(C)(C)C)cc(-c2c[nH]c3ncc(C(=O)NC4CC4)cc23)c1 | < 5.30
Nc1ncnc2ccc(-c3ccc(CNc4ncc(C(F)(F)F)cc4C(=O)NCc4ccc(F)c(F)c4)s3)cc12 | > 7.00
CN(C)S(=O)(=O)c1cnc(NCc2ccc(-c3ccc4ncnc(N)c4c3)s2)c(C(=O)NCc2ccc(F)c(F)c2)c1 | > 7.00
C[C@H](NC(=O)c1cccnc1NCc1ccc(-c2ccc3ncnc(N)c3c2)s1)c1ccc(F)cc1 | 6.00 to 7.00
Nc1ncnc2ccc(-c3ccc(CNc4ncc(Br)cc4C(=O)NCc4ccc(F)c(F)c4)s3)cc12 | > 7.00
Nc1ncnc2ccc(-c3ccc(CNc4ncccc4C(=O)NCc4ccncc4)s3)cc12 [Example 3.38, (TFA salt)] | 5.30 to 6.00
CCCNS(=O)(=O)c1cnc(NCc2ccc(-c3ccc4ncnc(N)c4c3)s2)c(C(=O)NCc2ccc(F)c(F)c2)c1 | 6.00 to 7.00
Cc1ccc(Nc2ncccc2C(=O)NCc2ccc(F)c(F)c2)cc1-c1ccc2c(c1)CNC2=O | < 5.30
O=C(NCc1ccc(F)c(F)c1)c1cccnc1NCc1ccc(-c2ccc3ncnc(NCC(F)(F)F)c3c2)s1 | 6.00 to 7.00
C[C@H](NC(=O)c1nc(C#N)cnc1NCc1ccc(-c2cnc3[nH]nc(NC(=O)c4ccccc4)c3c2)cc1)c1ccc(F)c(F)c1 | > 7.00
CCCNS(=O)(=O)c1cnc(NCc2ccc(-c3ccc4ncnc(N)c4c3)s2)c(C(=O)NC)c1 | < 5.30
Cc1ccc(F)cc1CNC(=O)c1cccnc1NCc1ccc(-c2ccc3ncnc(N)c3c2)s1 [Example 3.18, (TFA salt)] | 6.00 to 7.00
C[C@H](NC(=O)c1cccnc1NCc1ccc(-c2ccc3ncc(-n4cccn4)nc3c2)s1)c1ccc(F)c(F)c1 | < 5.30
COc1ccc([C@H](COc2ccc(N)c(N)c2)Nc2ncccc2C(=O)N[C@@H](C)c2ccc(F)c(F)c2)cc1 | < 5.30
O=C(Nc1ccc(F)c(F)c1)c1cccnc1NCc1cccc(-c2c[nH]c3ncccc23)c1 | 6.00 to 7.00
O=C(NCc1ccc(F)c(F)c1)c1cccnc1NCc1ccccc1-c1c[nH]c2ncccc12 | < 5.30

* * *

Entries and their pIC50 values follow.
# system tested: PDK1 (Homo sapiens (Human), UniProt O15530)
# assay summary: PDK1 kinase assay (coupled PDK1/AKT/FAM-crosstide assay, IMAP fluorescence polarization)
# Assay type: biochemical
# experimental parameters: inhibition of PDK1 in vitro
pIC50: −log10 of the molar value.

structure | pIC50
C[C@H](NC(=O)c1cc(C#N)cnc1NCc1ccc(-c2c[nH]nc2N)cc1)c1ccc(F)cc1 | < 5.30
N#Cc1cnc(NCc2ccc(-c3cnc(N)cn3)cc2)c(C(=O)NCc2cncc(F)c2)c1 | > 7.00
C[C@H](NC(=O)c1cc(C#N)cnc1NCc1ccc(-c2cnc(Nc3ccn(C)n3)nc2)cc1)c1ccc(F)cc1 | > 7.00
C[C@H](NC(=O)c1cc(C#N)cnc1NCc1ccc(-c2c[nH]c3ncnc(N)c23)cc1)c1ccc(F)cc1 | > 7.00
C[C@H](NC(=O)c1nc(C#N)cnc1N[C@H](C)c1ccc(-c2c[nH]c3ncnc(N)c23)cc1)c1ccc(F)c(F)c1 | > 7.00
Cc1cnc2c3cc(-c4ccc(CNc5ncccc5C(=O)N[C@@H](C)c5ccc(F)c(F)c5)s4)ccc3ncn12 | > 7.00
CC(C)Oc1cc(CNc2ncccc2C(=O)NCc2ccc(F)c(F)c2)cc(-c2c[nH]c3ncc(-c4ccc[nH]4)cc23)c1 | > 7.00
C[C@H](NC(=O)c1cc(C#N)cnc1NCc1ccc(-c2cnc(N)c(C(=O)NCCCN(C)C)n2)cc1)c1ccc(F)cc1 | > 7.00
C[C@H](NC(=O)c1cc(C#N)cnc1NCc1ccc(-c2cnc(N)c(N3CCC[C@H](N)C3)n2)cc1)c1ccc(F)cc1 | > 7.00

* * *

Entries and their pIC50 values follow.
# system tested: PDK1 (Homo sapiens (Human), UniProt O15530)
# assay summary: PDK1 kinase assay (coupled PDK1/AKT/FAM-crosstide assay, IMAP fluorescence polarization)
# Assay type: biochemical
# experimental parameters: inhibition of phospo-PDK1 in vitro
pIC50: −log10 of the molar value. Counter-ions that a name gives are not always drawn.

compound | pIC50
CC(C)NS(=O)(=O)c1cnc(NCc2ccc(-c3ccc4ncnc(N)c4c3)s2)c(C(=O)NCc2ccc(F)c(F)c2)c1 [Example 8.7.9] | 6.00 to 7.00
Cn1nc(Nc2ncccc2C(=O)NCc2ccc(F)c(F)c2)c2cc(-c3c[nH]c4ncccc34)ccc21 [Example 14.1] | > 7.00
Cc1nc(/C=C2\C(=O)Nc3cc(/C=C/CNc4ncccc4C(=O)NCc4ccc(F)c(F)c4)ccc32)c[nH]1 [Example 15.8] | > 7.00
Nc1ncnc2ccc(-c3ccc(CNc4ncccc4C(=O)NCc4cccc(F)c4)s3)cc12 [Example 3.9, (TFA salt)] | > 7.00
O=C(NCc1ccc(F)c(F)c1)c1ccccc1NCc1cccc(-c2c[nH]c3ncccc23)c1 [Example 1.20] | > 7.00
Nc1ncnc2ccc(-c3ccc(CNc4ncc(NC(=O)C5CCCC5)cc4C(=O)NCc4ccc(F)c(F)c4)s3)cc12 [Example 8.5.5] | 6.00 to 7.00
COCC#Cc1cnc(NCc2ccc(-c3ccc4ncnc(N)c4c3)s2)c(C(=O)N[C@@H](C)c2ccc(F)c(F)c2)n1 [Ex. 10.8] | 6.00 to 7.00
Nc1ncnc2ccc(-c3ccc(CNc4ncc(C5COC5)cc4C(=O)NCc4ccc(F)c(F)c4)s3)cc12 [Ex. 8.8.4] | > 7.00
